- target_entity: PI3Kδ (Homo sapiens)
- Construct: made in house
- Sequence (O00329 whole entry): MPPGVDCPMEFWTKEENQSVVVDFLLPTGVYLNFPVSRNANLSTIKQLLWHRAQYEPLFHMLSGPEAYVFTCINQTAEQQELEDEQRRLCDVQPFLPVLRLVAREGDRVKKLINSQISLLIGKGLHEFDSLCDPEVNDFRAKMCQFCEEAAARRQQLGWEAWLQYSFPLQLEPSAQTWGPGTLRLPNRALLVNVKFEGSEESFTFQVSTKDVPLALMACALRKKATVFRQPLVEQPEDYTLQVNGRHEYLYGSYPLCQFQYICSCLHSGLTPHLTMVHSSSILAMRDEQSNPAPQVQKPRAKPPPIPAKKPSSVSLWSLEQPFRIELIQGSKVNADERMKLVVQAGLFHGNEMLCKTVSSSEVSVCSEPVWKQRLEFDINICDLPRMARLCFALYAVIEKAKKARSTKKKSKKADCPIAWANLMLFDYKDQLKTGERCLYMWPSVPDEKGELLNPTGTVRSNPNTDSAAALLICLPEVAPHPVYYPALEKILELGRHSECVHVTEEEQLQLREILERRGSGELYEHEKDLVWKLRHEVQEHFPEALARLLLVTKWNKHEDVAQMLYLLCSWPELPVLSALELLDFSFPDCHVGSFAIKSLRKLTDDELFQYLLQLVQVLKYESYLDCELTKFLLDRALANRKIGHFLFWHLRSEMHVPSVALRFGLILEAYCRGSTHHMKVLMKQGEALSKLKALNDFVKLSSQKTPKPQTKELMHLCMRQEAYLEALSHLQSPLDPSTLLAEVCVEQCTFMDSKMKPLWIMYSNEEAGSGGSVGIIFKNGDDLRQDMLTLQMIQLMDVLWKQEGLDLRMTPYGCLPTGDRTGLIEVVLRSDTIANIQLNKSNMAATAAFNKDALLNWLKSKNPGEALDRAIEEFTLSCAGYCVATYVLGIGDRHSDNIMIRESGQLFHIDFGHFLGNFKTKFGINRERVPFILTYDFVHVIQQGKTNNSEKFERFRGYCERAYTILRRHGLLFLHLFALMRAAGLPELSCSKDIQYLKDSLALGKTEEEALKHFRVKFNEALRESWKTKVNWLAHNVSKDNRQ
- Sequence (P27986 whole entry partner): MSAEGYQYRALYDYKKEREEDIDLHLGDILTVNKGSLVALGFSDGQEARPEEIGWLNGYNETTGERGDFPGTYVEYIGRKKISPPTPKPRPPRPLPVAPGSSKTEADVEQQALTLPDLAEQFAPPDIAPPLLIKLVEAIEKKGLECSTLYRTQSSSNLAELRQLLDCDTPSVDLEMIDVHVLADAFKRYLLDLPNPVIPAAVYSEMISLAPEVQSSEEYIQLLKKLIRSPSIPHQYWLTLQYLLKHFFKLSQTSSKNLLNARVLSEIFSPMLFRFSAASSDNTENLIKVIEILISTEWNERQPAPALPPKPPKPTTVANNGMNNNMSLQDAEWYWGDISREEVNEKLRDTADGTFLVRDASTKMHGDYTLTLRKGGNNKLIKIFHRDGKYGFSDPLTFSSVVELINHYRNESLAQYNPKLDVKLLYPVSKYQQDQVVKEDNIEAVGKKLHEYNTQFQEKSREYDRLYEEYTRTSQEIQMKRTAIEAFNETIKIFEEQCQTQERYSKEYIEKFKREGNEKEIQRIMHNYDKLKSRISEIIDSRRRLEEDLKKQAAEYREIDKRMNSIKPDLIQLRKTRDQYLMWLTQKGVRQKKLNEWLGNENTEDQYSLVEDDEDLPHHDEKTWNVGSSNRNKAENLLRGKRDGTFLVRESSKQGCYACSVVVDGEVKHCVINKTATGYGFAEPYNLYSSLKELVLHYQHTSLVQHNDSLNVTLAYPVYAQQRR
- experiment_description: Enzymatic activity of PI3K isoforms, TR-FRET assay (PIP3 formation)
- Type: biochemical
- measurement_context: PI3Kδ; TR-FRET, 2×Km ATP, 10 μM PIP2; read-out: IC50
Readings of IC50 for the listed compounds

{"compound": "CCC(Nc1nc(N)nc(N)c1C#N)c1nc2c(C)cccc2c(=O)n1-c1cc(F)cc(F)c1 (single isomer, unassigned) [Compound 76a]", "target_entity": "PI3Kδ (Homo sapiens)", "data_value": "10 to 50 nM"}
{"compound": "C[C@H](Nc1nc(N)nc(N)c1C#N)c1nc2cccc(F)c2c(=O)n1-c1cccc(C(F)F)c1 [Compound 121a]", "target_entity": "PI3Kδ (Homo sapiens)", "data_value": "1 to 10 nM"}
{"compound": "CC(Nc1nc(N)nc(N)c1C#N)c1nc2cccc(F)c2c(=O)n1-c1ccccc1 (single isomer, unassigned) [Compound 81a]", "target_entity": "PI3Kδ (Homo sapiens)", "data_value": "1 to 10 nM"}

Lab note: next compound to report on.
Exercise: Identify the reported IC50 for the following entry. CC(Nc1nc(N)nc(N)c1Cl)c1nc2c(F)ccc(Cl)c2c(=O)n1-c1ccccc1 (single isomer, unassigned) [Compound 127a]
Key: 1 to 10 nM
